- Tested on: Staphylococcus sp.
- assayText: In vitro antibacterial evaluation: minimum inhibitory concentration (MIC), broth dilution method
- Format: cell-based
- details: strain GC 4551
readoutKind: MIC Coagulase Negative Staphylococcus (GC 4551) (µg/mL)
Numeric answer only, unit µg/mL assumed.

# molecule, numericResult
records = [
    ("CCCC(C)C1OCC2OC(OC3C(CO)OC(Oc4ccc(CC5NC(=O)C(C(C)c6ccccc6)NC(=O)CNC(=O)C(CO)NC(=O)C(C(O)C6CNC(=N)N6C6OC(CO)C(O)C(O)C6O)NC(=O)C(C(O)C6CNC(=N)N6)NC5=O)cc4)C(O)C3O)C(O)C(O)C2O1 (stereo not shown) [Example 111]", 1),
    ("CC(c1ccccc1)C1NC(=O)CNC(=O)C(CO)NC(=O)C(C(O)C2CNC(=N)N2C2OC(CO)C(O)C(O)C2O)NC(=O)C(C(O)C2CNC(=N)N2)NC(=O)C(Cc2ccc(OC3OC(CO)C(OC4OC5COC(C6CC=CCC6)OC5C(O)C4O)C(O)C3O)cc2)NC1=O (stereo not shown) [Example 115]", 1),
    ("CC(c1ccccc1)C1NC(=O)CNC(=O)C(CO)NC(=O)C(C(O)C2CNC(=N)N2C2OC(CO)C(O)C(O)C2O)NC(=O)C(C(O)C2CNC(=N)N2)NC(=O)C(Cc2ccc(OC3OC(CO)C(OC4OC5COC6(CC7CCC6(C)C7(C)C)OC5C(O)C4O)C(O)C3O)cc2)NC1=O (stereo not shown) [Example 215]", 0.5),
]

Would you kindly share the measured MIC Coagulase Negative Staphylococcus (GC 4551) for CC(C)=CCN1CC(C(O)C2NC(=O)C(C(O)C3CNC(=N)N3)NC(=O)C(Cc3ccc(OC4OC(CO)C(OC5OC6COC7(OC6C(O)C5O)C5CC6CC(C5)CC7C6)C(O)C4O)cc3)NC(=O)C(C(C)c3ccccc3)NC(=O)CNC(=O)C(CO)NC2=O)N(C2OC(CO)C(O)C(O)C2O)C1=N (stereo not shown) [Example 225] ?
4

Field entry: CC(c1ccccc1)C1NC(=O)CNC(=O)C(CO)NC(=O)C(C(O)C2CNC(=N)N2C2OC(CO)C(O)C(O)C2O)NC(=O)C(C(O)C2CNC(=N)N2)NC(=O)C(Cc2ccc(OC3OC(COC(=O)C(c4ccccc4)c4ccccc4)C(OC4OC(CO)C(O)C(O)C4O)C(O)C3O)cc2)NC1=O (stereo not shown) [Example 96b]
2

Entry to check: N=C1NCC(C(O)C2NC(=O)C(Cc3ccc(OC4OC(CO)C(OC5OC6COC7(OC6C(O)C5O)C5CC6CC(C5)CC7C6)C(O)C4O)cc3)NC(=O)C(Cc3ccccc3)NC(=O)CNC(=O)C(CO)NC(=O)C(C(O)C3CNC(=N)N3C3OC(CO)C(O)C(O)C3O)NC2=O)N1 (stereo not shown) [Example 220]
0.5

Record: N=C1NCC(C(O)C2NC(=O)C(Cc3ccc(OC4OC(CO)C(OC5OC(CO)C(O)C6OC7(OC56)C5CC6CC(C5)CC7C6)C(O)C4O)cc3)NC(=O)C(CC3CCCCC3)NC(=O)CNC(=O)C(CO)NC(=O)C(C(O)C3CNC(=N)N3C3OC(CO)C(O)C(O)C3O)NC2=O)N1 (stereo not shown) [Example 106a]
2

Also CC(c1ccccc1)C1NC(=O)CNC(=O)C(CO)NC(=O)C(C(O)C2CNC(=N)N2C2OC(CO)C(O)C(O)C2O)NC(=O)C(C(O)C2CNC(=N)N2)NC(=O)C(Cc2ccc(OC3OC(CO)C(OC4OC5COC(C)(c6ccc(F)cc6)OC5C(O)C4O)C(O)C3O)cc2)NC1=O (stereo not shown) [Example 216] ?
2

What do you have for CC(c1ccccc1)C1NC(=O)CNC(=O)C(CO)NC(=O)C(C(O)C2CNC(=N)N2C2OC(CO)C(O)C(O)C2O)NC(=O)C(C(O)C2CNC(=N)N2)NC(=O)C(Cc2ccc(OC3OC(CO)C(OC4OC5COC(CC(C)(C)C)OC5C(O)C4O)C(O)C3O)cc2)NC1=O (stereo not shown) [Example 110] ?
1
